- tgt: Microtubule-associated protein tau (Homo sapiens) (UniProt P10636)
- Sequence (P10636 561-689 P618L limits assumed): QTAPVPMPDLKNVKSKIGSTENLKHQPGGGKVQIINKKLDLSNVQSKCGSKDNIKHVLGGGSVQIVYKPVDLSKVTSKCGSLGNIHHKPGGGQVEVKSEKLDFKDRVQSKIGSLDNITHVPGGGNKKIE
- measurement description: qHTS for Inhibitors of Tau Fibril Formation, Thioflavin T Binding; note: nearly all actives have a fitted effect of over 55% in size
- condition label: recombinant tau K18 P301L, heparin-induced fibrillization, ThT fluorescence; series mostly up to 57.4 µM
In all, about 270,000 compounds went through this assay and about 5,800 (2.1%) were called active. Inconclusive results (about 16%) are left out. Calls come from the whole dose curve; as a rule, active = well fitted inhibition curve with a large enough effect; inconclusive = small, poorly fitted or top-dose-only effect; inactive = flat fitted curve, though single readings scatter. What follows is part of a selection rich in actives, with near analogues and random picks from the rest.
Possible outcomes: t (active), f (inactive)

In [3]: df
Out[3]:
                                    compound                                       tgt  discrete_label
 0    CCCNC(=O)C1CCN(c2nc3ccc(C)cc3[nH]2)CC1  Microtubule-associated protein tau (Homo sapiens) (UniProt P10636)               f
 1  O=C(O)c1ccccc1C(=O)Nc1ccccc1[N+](=O)[O-]  Microtubule-associated protein tau (Homo sapiens) (UniProt P10636)               f
 2       COc1cccc(C(=O)Nc2ccc(N3CCCC3)cc2)c1  Microtubule-associated protein tau (Homo sapiens) (UniProt P10636)               t
 3  COC(=O)c1[nH]c2ccccc2c1NS(=O)(=O)c1ccc(OC)cc1OC  Microtubule-associated protein tau (Homo sapiens) (UniProt P10636)               f
 4  COc1ccc(-c2nc3ccc(C(=O)NCc4ccc(C)cc4)cc3nc2-c2ccc(OC)cc2)cc1  Microtubule-associated protein tau (Homo sapiens) (UniProt P10636)               f
 5  O=C(NCc1ccccn1)c1ccc2nc(-c3ccco3)c(-c3ccco3)nc2c1  Microtubule-associated protein tau (Homo sapiens) (UniProt P10636)               t
 6  CCOC(=O)c1[nH]c2ccc(OC)cc2c1NC(=O)CCN1CCN(Cc2ccccc2)CC1  Microtubule-associated protein tau (Homo sapiens) (UniProt P10636)               f
 7  COc1ccc(CNC(=O)CSc2n[nH]c(-c3ccc(F)cc3)n2)cc1  Microtubule-associated protein tau (Homo sapiens) (UniProt P10636)               f
 8  O=C(NC1CC(=O)N(c2ccccc2)C1)c1ccco1 (stereo not given)  Microtubule-associated protein tau (Homo sapiens) (UniProt P10636)               f
 9  O=[N+]([O-])c1cc(Cl)cc(/C=N/NC(=S)Nc2cc(S(=O)(=O)N3CCOCC3)ccc2Cl)c1O  Microtubule-associated protein tau (Homo sapiens) (UniProt P10636)               t
10  Cc1nnc(C)n1-c1ccc(C(=O)Nc2cccc(Br)c2)cc1  Microtubule-associated protein tau (Homo sapiens) (UniProt P10636)               f
11  Cc1ccc(NC(=O)C(=O)NCC(c2cccnc2)N2CCOCC2)cc1 (stereo not given)  Microtubule-associated protein tau (Homo sapiens) (UniProt P10636)               f
12       CCOC(=O)c1ccccc1C(=O)N1CCOCCOCCOCC1  Microtubule-associated protein tau (Homo sapiens) (UniProt P10636)               f
13  Cc1coc2c(O)cc3c(c12)OC1(N2CCCCC2)C(=O)NCCCC31 (stereo not given)  Microtubule-associated protein tau (Homo sapiens) (UniProt P10636)               t
14  O=c1[nH]n(-c2ccc([N+](=O)[O-])cc2)c(=O)c2ccccc12  Microtubule-associated protein tau (Homo sapiens) (UniProt P10636)               f
15  COC(=O)c1cc(S(=O)(=O)N2CCN(c3cc(Cl)ccc3C)CC2)c[nH]1  Microtubule-associated protein tau (Homo sapiens) (UniProt P10636)               f
16  O=C(CSc1nnc(-c2ccccc2F)o1)Nc1cccc(C(F)(F)F)c1  Microtubule-associated protein tau (Homo sapiens) (UniProt P10636)               f
17  O=C(CSc1ccc(/C=N/NC(=O)c2cccc(F)c2)o1)Nc1ccccc1  Microtubule-associated protein tau (Homo sapiens) (UniProt P10636)               f
18              Cc1noc2ncnc(NCc3ccccc3Cl)c12  Microtubule-associated protein tau (Homo sapiens) (UniProt P10636)               f
19  COc1cccc(C(=O)Nc2nnc(S(=O)(=O)N3CCOCC3)s2)c1  Microtubule-associated protein tau (Homo sapiens) (UniProt P10636)               t

====

- tgt: Microtubule-associated protein tau (Homo sapiens) (UniProt P10636)
- measurement description: qHTS for Inhibitors of Tau Fibril Formation, Thioflavin T Binding; note: nearly all actives have a fitted effect of over 55% in size
- condition label: recombinant tau K18 P301L (four-repeat tau fragment), heparin-induced fibrillization, ThT fluorescence; series mostly up to 57.4 µM
Among all 270,000 compounds or so, about 5,800 (2.1%) were called active. Roughly 16% stayed inconclusive and do not appear here. Calls follow the shape of the dose curve; as a rule, active = well fitted inhibition curve with a large enough effect; inconclusive = small, poorly fitted or top-dose-only effect; inactive = flat fitted curve, though single readings scatter. Only a selection was taken, and actives are over-represented in it overall.
Possible outcomes: t = active, f = inactive

>>> df
                                    compound  discrete_label
 0  Cn1cc(/C=C/c2nc3ccccc3c(=O)n2-c2cccc([N+](=O)[O-])c2)c2ccccc21               f
 1  Cc1nc2cc(NC(=O)CSc3nc4c(C)cccc4cc3C#N)ccc2s1               f
 2  Cc1oc2c(c1C(=O)N1CCOCC1)C(=O)c1ccccc1C2=O               f
 3   CCN1CCc2nc(NC(=O)c3cc(F)c(F)cc3Cl)sc2C1               f
 4  O=C(N/N=C/c1ccc(Cl)cc1)c1nc2ccc([N+](=O)[O-])cc2c(=O)[nH]1               t
 5  COc1ccc(N2CCN(C(=O)CSc3nc4cc(OC)c(OC)cc4cc3C#N)CC2)cc1               f
 6  Cc1c(-c2cccc(NC(=O)C(C)(C)C)c2)nc2ncccn12               f
 7      Cc1ccc(OC(=O)CSc2nnc(-c3cccs3)o2)cc1               f
 8  COc1ccc(Cn2ccc3nc(C)c(C(=O)Nc4ccc(C)c(F)c4)cc3c2=O)cc1               f
 9  Cc1ccc(N2C(=O)S/C(=C/c3cn(C)c4ccccc34)C2=O)cc1               f
10  COc1cc(CN(C(=O)c2ccccc2Br)c2ccccn2)cc(OC)c1OC               f
11   O=c1c(=O)n(Cc2c(F)cccc2Cl)ccn1Cc1ccccc1               f
12            CC/C(=N/Nc1ccccc1)c1cnnc(SC)n1               t
13  COc1ccc(-c2nc(SCC(=O)N3CCCCC3C)n[nH]2)cc1 (stereo not given)               f
14  O=C(O)c1ccc2c(c1)C(=O)N(NC(=O)c1ccc(O)cc1)C2=O               f
15  Clc1ccccc1CSc1nnc(-c2ccco2)c(-c2ccco2)n1               t
16  N#Cc1cc([N+](=O)[O-])ccc1Oc1cccc(/C=N/NC(=O)c2ccc(Cl)cc2)c1               f
17  CN(Cc1ccccc1)c1ncnc2onc(-c3ccc(F)cc3)c12               f
18             COC(OC)c1ccnc(SCc2ccccc2Cl)n1               f
19          Brc1ccc(CSc2ccc(-c3ccco3)nn2)cc1               f
